The values you see were collected from patent US20230056205A1.

tested on: DENV-2 replicon; test: Luciferase reporter replicon-based screening, DENV-2; format: cell-based, DENV-2 (New Guinea C strain, NGC); details: read-out: EC50 DENV-2; Huh7 cells stably expressing DENV-2 replicon, 48 h
quantity: EC50 (nM)
Just the number in nM, nothing appended.

C[C@@H](c1ccc(Cl)cc1)n1nnc2c1NC(=O)C[C@]21C(=O)N(Cc2ccc(F)cc2)c2ccc(Cl)cc21 ... 160
C[C@@H](c1ccc(Cl)cc1)n1nnc2c1NC(=O)C[C@]21C(=O)N(CCF)c2ccc(Cl)cc21 ... 38
C[C@@H](c1ccc(Cl)cc1)n1nnc2c1NC(=O)C[C@]21C(=O)N(CCO)c2ccc(Cl)cc21 ... 37
C[C@@H](c1ccc(Cl)cc1)n1nnc2c1NC(=O)C[C@]21C(=O)N(Cc2ccccc2)c2ccc(Cl)cc21 ... 150

Incoming: Item C[C@@H](c1ccc(Cl)cc1)n1nnc2c1NC(=O)C[C@]21C(=O)N(CCCCCl)c2ccc(Cl)cc21 has what recorded EC50?
Outgoing: 73

Incoming: Okay, and COCCCN1C(=O)[C@]2(CC(=O)Nc3c2nnn3[C@@H](C)c2ccc(Cl)cc2)c2cc(Cl)ccc21 ?
Outgoing: 40
